B1: PRIM1 (parent)
chain: CCSSADICPKCWTLMTMAIRIIDR

Variants of: B1
Test Details: protein stability index of a GFP-peptide fusion (GPS, HEK-293T) (PSI 1-6); higher = more stable;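 note: lentivirally expressed fusions sorted by FACS into six bins by GFP to DsRed ratio, PSI derived from sequencing read proportions per bin multiplied by bin number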
Cond: c terminus: a fixed tail appended
Give true when the value for protein stability index is at least 2. Give false when it is less.

| Monomer Sequence | Class Assignment |
| --- | --- |
| CCSSADICPKCWTLMTMGIRIIDR [A18G] | true |
| CCQSADICPKCWTLMTMAIRIIDR [S3Q] | true |
| CCSSADICPKCWTLMTMAIRIIDN [R24N] | false |
| CCSSADICPKCYTLMTMAIRIIDR [W12Y] | true |
| CCSSADICPKCWTLMTMALRIIDR [I19L] | true |
| CCYSADICPKCWTLMTMAIRIIDR [S3Y] | true |
| CCSGADICPKCWTLMTMAIRIIDR [S4G] | false |
| CCSSADICPKCWTLMTMAIRIEDR [I22E] | true |
| CCSSSDICPKCWTLMTMAIRIIDR [A5S] | true |
| CCSSADIRPKCWTLMTMAIRIIDR [C8R] | true |
| CCSSADICNKCWTLMTMAIRIIDR [P9N] | false |
| CCSSADICPKCWTLMTMAIRIRDR [I22R] | true |
| CCSSADICPKCWTLMTMAIAIIDR [R20A] | false |
| CCSSADICPKCWTLMTMAIRYIDR [I21Y] | false |
| CCSNADICPKCWTLMTMAIRIIDR [S4N] | false |
| CCSSADDCPKCWTLMTMAIRIIDR [I7D] | true |
| CCSSADICPKCWGLMTMAIRIIDR [T13G] | false |
| MCSSADICPKCWTLMTMAIRIIDR [C1M] | true |
| CCSSADICPKCWTLMTMAIRIHDR [I22H] | false |
| CCSSADICPKCWTLHTMAIRIIDR [M15H] | true |
| CCSSAQICPKCWTLMTMAIRIIDR [D6Q] | true |
| CCSSADICPKCWTLMTMAIYIIDR [R20Y] | false |
| CCSSADICPKCWTLMTMAWRIIDR [I19W] | false |
| CCSSADICPKCWTLMTMAIWIIDR [R20W] | false |
| CCSSADICTKCWTLMTMAIRIIDR [P9T] | false |
